# ASSAY_SYSTEM: human GAL3 receptor (Homo sapiens)
# Construct: expressed in transfected cells
# Sequence (O60755 whole entry): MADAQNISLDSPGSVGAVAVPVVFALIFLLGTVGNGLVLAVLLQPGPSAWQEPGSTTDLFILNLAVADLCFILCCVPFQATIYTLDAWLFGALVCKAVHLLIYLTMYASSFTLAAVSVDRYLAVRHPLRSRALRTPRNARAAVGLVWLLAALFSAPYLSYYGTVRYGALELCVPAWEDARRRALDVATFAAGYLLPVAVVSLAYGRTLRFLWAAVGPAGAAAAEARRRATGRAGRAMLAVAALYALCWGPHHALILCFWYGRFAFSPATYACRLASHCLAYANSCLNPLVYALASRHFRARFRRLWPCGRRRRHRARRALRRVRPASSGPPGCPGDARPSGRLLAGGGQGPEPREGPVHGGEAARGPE
# ASSAY_OVERVIEW: Radioligand binding at cloned human GAL3 receptor
# CONDITIONS_USED: pyrimidines, cloned human receptor; read-out: Ki GalR3
So I've got a bunch of molecules here, and I need their Ki values.
One number for each entry, in nM.

{"SMILES_TEXT": "Cc1ccc(Nc2cc(N3CCCCC3)nc(NCCc3c[nH]c4ccccc34)n2)cc1", "READOUT_LABEL": "Ki", "RESULT_NUMBER": 100}

For the 4 molecules below, give their Ki values.
1. Cc1ccc(Nc2cc(N3CCC(=O)CC3)nc(N3CCN(Cc4ccccc4)CC3)n2)cc1
2. CCCCCCc1ccc(Nc2cc(N(C)C)nc(N3CCN(c4ccccn4)CC3)n2)cc1
3. CCCc1ccc(Nc2cc(N(C)C)nc(N3CCN(c4ccccn4)CC3)n2)cc1
4. CCCc1ccccc1Nc1cc(N(C)C)nc(N2CCN(c3ccccn3)CC2)n1

RESULT:
[163, 19, 205, 365]

Look up Ki for the entries below, preserving their order.
1. CN(CCc1c[nH]c2ccccc12)c1nc(Nc2ccc(F)c(F)c2)cc(N2CCCCC2)n1
2. CN(C)c1cccc(Nc2cc(N(C)C)nc(N3CCN(Cc4ccccc4)CC3)n2)c1

RESULT:
1: 73; 2: 99

Please supply Ki for each of the following items, keeping them in order.
1. Cc1ccc(Nc2cc(N3CCCCC3)nc(N3CCN(Cc4ccccc4)CC3)n2)cc1
2. Cc1ccc(Nc2cc(N(C)C)nc(N3CCN(c4ccccn4)CC3)n2)cc1Nc1ccccn1

RESULT:
1: 60; 2: 166

Values were extracted from patent EP2140864A2.
